Molecular target: IRAK4 enzyme (Homo sapiens (Human), UniProt Q9NWZ3)
Sequence (Q9NWZ3 whole entry): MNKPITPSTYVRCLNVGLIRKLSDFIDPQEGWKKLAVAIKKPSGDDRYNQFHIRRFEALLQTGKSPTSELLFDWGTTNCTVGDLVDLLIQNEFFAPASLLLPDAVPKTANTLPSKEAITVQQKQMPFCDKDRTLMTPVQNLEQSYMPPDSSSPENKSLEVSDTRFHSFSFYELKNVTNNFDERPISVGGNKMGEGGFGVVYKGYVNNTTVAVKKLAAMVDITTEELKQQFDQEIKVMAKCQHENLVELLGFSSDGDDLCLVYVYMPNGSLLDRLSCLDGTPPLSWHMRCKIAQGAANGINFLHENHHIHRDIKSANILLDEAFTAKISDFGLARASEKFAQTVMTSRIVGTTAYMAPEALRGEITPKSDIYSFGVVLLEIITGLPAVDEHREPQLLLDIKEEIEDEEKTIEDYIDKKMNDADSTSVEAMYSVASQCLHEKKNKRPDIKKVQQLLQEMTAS
Assay: IRAK4 Biochemical Assay (TR-FRET, STK1 KinEASE)
Output Y for records whose IC50 is lower than 0.7 nM, N for records at or above 0.7 nM.

Solved entries:
compound=CC(=O)N1C2CCC1CN(c1nnc(-c3cnc(-c4ccc5cc(C#N)cnn45)cc3NC(C)C)s1)C2 label_value=N
compound=CC(=O)NC12CC(c3nnc(-c4cnc(-c5ccc6cc(C#N)cnn56)cc4NC4CCOCC4)s3)(C1)C2 label_value=Y
compound=CC(=O)NC12CCC(CC1)N(c1nnc(-c3cnc(-c4ccc5cc(C#N)cnn45)cc3NC(C)C)s1)C2 label_value=Y

Is 0.7 nM strictly greater than the compound's reported IC50? compound: CC(=O)NC1CC=C(c2nnc(-c3cnc(-c4ccc5cc(C#N)cnn45)cc3NC(C)C)s2)CC1 (centres unmarked)
N

Is 0.7 nM strictly greater than the compound's reported IC50? compound: `CC(C)Nc1cc(-c2ccc3cc(C#N)cnn23)ncc1-c1nnc(N2CC[C@@H](O)C(F)(F)C2)s1`
N

Is 0.7 nM strictly greater than the compound's reported IC50? compound: `CC(C)Nc1cc(-c2ccc3cc(C#N)cnn23)ncc1-c1nnc(NCC(C)(C)O)s1`
N

Is 0.7 nM strictly greater than the compound's reported IC50? compound: `CC(C)Nc1cc(-c2ccc3cc(C#N)cnn23)ncc1-c1nnc(N2C3CCC2COC3)s1`
N

Is 0.7 nM strictly greater than the compound's reported IC50? compound: `CC(C)Nc1cc(-c2ccc3cc(C#N)cnn23)ncc1-c1nnc(C23CCC(O)(CC2)CC3)s1`
N

Is 0.7 nM strictly greater than the compound's reported IC50? compound: `CC(C)Nc1cc(-c2ccc3cc(C#N)cnn23)ncc1-c1nnc(CC(C)(C)O)s1`
N

Is 0.7 nM strictly greater than the compound's reported IC50? compound: `CC(C)Nc1cc(-c2ccc3cc(C#N)cnn23)ncc1-c1nnc(N2CCC(C#N)CC2)s1`
Y

====

Molecular target: IRAK4 enzyme (Homo sapiens (Human), UniProt Q9NWZ3)
Assay: IRAK4 Biochemical Assay (TR-FRET, STK1 KinEASE)
property measured: IC50 (nM)
Response body: numeric value in nM, unit text excluded.

compound="CC(C)Nc1cc(-c2ccc3cc(C#N)cnn23)ncc1-c1nnc(N2CCOCC2)s1 [Example 131]" test_target="IRAK4 enzyme (Homo sapiens (Human), UniProt Q9NWZ3)" property_measured=IC50 number=0.53

I am curious: what IC50 value has been reported for CC(C)Nc1cc(-c2ccc3cc(C#N)cnn23)ncc1-c1nnc(N2C3CC2CN(C(=O)C(C)(C)O)C3)s1 [Compound 275] ?
0.78

I am curious: what IC50 value has been reported for CC(=O)NC1CCN(c2nnc(-c3cnc(-c4ccc5cc(C#N)cnn45)cc3NC(C)C)s2)CC1(F)F (stereo not shown) [Compound 251] ?
0.48

I am curious: what IC50 value has been reported for CC(=O)N[C@@H]1[C@@H]2CC[C@H]1N(c1nnc(-c3cnc(-c4ccc5cc(C#N)cnn45)cc3NC(C)C)s1)C2 [Example 137] ?
0.85

I am curious: what IC50 value has been reported for CC(=O)N[C@H]1CC[C@H](c2nnc(-c3cnc(-c4ccc5cc(C#N)cnn45)cc3N[C@H](C)C#N)s2)CC1 [Example 316] ?
0.59

I am curious: what IC50 value has been reported for CC(C)Nc1cc(-c2ccc3cc(C#N)cnn23)ncc1-c1nnc(N2CC(O)(C(F)(F)F)C2)s1 [Example 297] ?
0.67

I am curious: what IC50 value has been reported for CC(C)Nc1cc(-c2ccc3cc(C#N)cnn23)ncc1-c1nnc(N2C3CNCC2C3)s1 [Compound 274] ?
1.59
